Source listed as ChEMBL document CHEMBL1201862.

Biological target: Peroxisome proliferator-activated receptor gamma/Nuclear receptor coactivator 3 (Homo sapiens, UniProt P37231)
Sequence (P37231 whole entry): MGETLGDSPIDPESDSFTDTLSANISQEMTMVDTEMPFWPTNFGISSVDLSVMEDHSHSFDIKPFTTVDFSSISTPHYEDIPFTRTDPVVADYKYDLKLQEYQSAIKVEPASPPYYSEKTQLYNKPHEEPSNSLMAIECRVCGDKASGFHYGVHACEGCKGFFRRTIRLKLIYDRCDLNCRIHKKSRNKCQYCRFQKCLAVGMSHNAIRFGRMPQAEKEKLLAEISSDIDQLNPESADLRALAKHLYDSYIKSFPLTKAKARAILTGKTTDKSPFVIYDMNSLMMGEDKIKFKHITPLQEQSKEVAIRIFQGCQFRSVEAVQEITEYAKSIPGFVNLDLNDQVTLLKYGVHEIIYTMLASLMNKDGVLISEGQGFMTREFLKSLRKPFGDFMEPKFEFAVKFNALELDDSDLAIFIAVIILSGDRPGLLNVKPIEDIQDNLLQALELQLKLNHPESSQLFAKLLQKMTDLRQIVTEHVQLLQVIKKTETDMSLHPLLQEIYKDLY
Sequence (Q9Y6Q9 whole entry, further chain): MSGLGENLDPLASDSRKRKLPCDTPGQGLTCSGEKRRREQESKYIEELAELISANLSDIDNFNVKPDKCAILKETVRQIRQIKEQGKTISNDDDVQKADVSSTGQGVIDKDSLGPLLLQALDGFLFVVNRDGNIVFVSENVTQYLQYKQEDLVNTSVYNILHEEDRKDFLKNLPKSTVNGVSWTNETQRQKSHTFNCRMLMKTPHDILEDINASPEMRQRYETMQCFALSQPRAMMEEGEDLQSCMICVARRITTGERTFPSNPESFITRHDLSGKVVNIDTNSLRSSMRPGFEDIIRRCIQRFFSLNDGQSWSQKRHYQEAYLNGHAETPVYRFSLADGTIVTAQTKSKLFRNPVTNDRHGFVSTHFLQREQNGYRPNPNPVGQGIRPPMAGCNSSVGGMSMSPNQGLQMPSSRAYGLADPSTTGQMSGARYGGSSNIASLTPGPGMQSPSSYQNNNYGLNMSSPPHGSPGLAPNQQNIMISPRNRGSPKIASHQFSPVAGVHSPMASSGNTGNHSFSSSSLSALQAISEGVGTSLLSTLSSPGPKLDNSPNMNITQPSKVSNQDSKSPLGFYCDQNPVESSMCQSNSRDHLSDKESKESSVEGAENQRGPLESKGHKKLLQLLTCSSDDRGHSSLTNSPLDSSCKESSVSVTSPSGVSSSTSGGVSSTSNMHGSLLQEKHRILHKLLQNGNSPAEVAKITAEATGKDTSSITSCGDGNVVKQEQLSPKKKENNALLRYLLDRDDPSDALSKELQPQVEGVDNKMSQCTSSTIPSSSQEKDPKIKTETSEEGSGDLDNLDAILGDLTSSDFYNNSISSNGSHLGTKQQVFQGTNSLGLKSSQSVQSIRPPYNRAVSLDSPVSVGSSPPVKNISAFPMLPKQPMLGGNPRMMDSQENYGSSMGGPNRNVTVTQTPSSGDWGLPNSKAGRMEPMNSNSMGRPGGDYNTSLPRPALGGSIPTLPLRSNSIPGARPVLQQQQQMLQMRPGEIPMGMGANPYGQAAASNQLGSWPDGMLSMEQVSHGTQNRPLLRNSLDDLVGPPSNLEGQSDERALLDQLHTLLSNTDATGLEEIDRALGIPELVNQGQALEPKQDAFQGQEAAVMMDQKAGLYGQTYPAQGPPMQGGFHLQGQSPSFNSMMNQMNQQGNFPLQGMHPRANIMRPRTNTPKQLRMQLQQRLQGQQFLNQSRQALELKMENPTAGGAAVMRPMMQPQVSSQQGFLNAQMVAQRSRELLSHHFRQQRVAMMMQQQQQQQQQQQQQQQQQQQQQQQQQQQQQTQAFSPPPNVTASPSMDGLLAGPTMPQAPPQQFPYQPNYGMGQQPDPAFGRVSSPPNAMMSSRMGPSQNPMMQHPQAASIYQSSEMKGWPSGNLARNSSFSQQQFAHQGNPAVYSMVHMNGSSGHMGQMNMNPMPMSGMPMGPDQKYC
Assay: TR-FRET dose response biochemical High Throughput Screening assay for agonists of the steroid receptor coactivator 3 (SRC-3) recruitment by the peroxisome proliferator-activated receptor gamma (PPAR gamma): non-selective agonists. [Related pubchem assays: 1301 (Confirmation screen.), 1048 (Primary screen.)]
Type: functional
Below, each entry is listed with its recorded EC50.
Assay readout: EC50

- Compound string: "Fc1ccc(-c2nnsc2Sc2ccccn2)cc1"
  Observed: "16.1 µM (not active)"
- Compound string: "CC(C)OC(=O)CNc1nnc(S)nc1O"
  Observed: "21.7 µM (not active)"
- Compound string: "CCSc1nnc(-c2ccccc2SC)o1"
  Observed: "> 79.4 µM (not active)"
- Compound string: "NC(=O)CSc1ncnc2c1oc1ccccc12"
  Observed: "> 79.4 µM (not active)"
